- methodNotes: RP, Restek Raptor Biphenyl, 100 × 2.1 mm, 2.7 µm, 50 °C, 0.4 mL/min, estimated dead time 0.55 min; A: water + 0.1% formic acid, pH 3; B: methanol + 0.1% formic acid, pH 3; gradient (min/%B) 0/5 1.12/5 6.41/99.5 10.01/99.5
- recordedConditions: stereoisomer not certain
Attribute: LC retention time
Express your answer in min, writing the number without its unit.

These recorded examples may help you get a feel for the data.
The recorded LC retention time for CC(=O)NC(CC(C)C)C(=O)O (configuration not stated) [N-ACETYLLEUCINE] is 3.63

The recorded LC retention time for CCCCCCCCCCCC=CCCCCC(=O)O [PETROSELINATE] is 6.63

The recorded LC retention time for CC(=O)NC(C)C(=O)O (configuration not stated) [N-ACETYLALANINE] is 1.05

***
The recorded LC retention time for CC(C)(C)C(O)C(=Cc1ccc(Cl)cc1Cl)n1cncn1 (configuration not stated) [Diniconazole] is 6.05

The recorded LC retention time for CC(=O)Oc1ccccc1 [PHENYL ACETATE] is 2.46

The recorded LC retention time for O=C(O)C(O)Cc1c[nH]c2ccccc12 (racemic) [DL-Indole-3-lactic acid] is 3.91

====

- methodNotes: RP, Restek Raptor Biphenyl, 100 × 2.1 mm, 2.7 µm, 50 °C, 0.4 mL/min, estimated dead time 0.55 min; A: water + 0.1% formic acid, pH 3; B: methanol + 0.1% formic acid, pH 3; gradient (min/%B) 0/5 1.12/5 6.41/99.5 10.01/99.5
- recordedConditions: stereoisomer not certain
Class Yes: LC retention time at least 6 min. Class No: LC retention time below 6 min.

In plain terms: is recorded LC retention time at least 6 min for OCCc1c[nH]c2ccccc12 [INDOLE-3-ETHANOL] ?
No

In plain terms: is recorded LC retention time at least 6 min for CCCCCCCCCC(O)CC(=O)OC(CC(=O)[O-])C[N+](C)(C)C [[(3R)-3-Hydroxydodecanoyl]-L-carnitine] ?
No

In plain terms: is recorded LC retention time at least 6 min for CSCCC(O)C(=O)O (configuration not stated) [2-HYDROXY-4-(METHYLTHIO)BUTANOATE] ?
No

In plain terms: is recorded LC retention time at least 6 min for CC(C)(C)N(NC(=O)c1ccc(Cl)cc1)C(=O)c1ccccc1 [Halofenozide] ?
No

====

- methodNotes: RP, Restek Raptor Biphenyl, 100 × 2.1 mm, 2.7 µm, 50 °C, 0.4 mL/min, estimated dead time 0.55 min; A: water + 0.1% formic acid, pH 3; B: methanol + 0.1% formic acid, pH 3; gradient (min/%B) 0/5 1.12/5 6.41/99.5 10.01/99.5
- recordedConditions: stereoisomer not certain
Where a name gives a salt, the structure may show the parent alone.
Label key: yes means LC retention time under 6 min; no means LC retention time of 6 min or more.

Lab log: compare recorded LC retention time with 6 min; is it strictly lower for `CCCCCCCCCCCCCCCCCCCCC(=O)O` ?
no

Lab log: compare recorded LC retention time with 6 min; is it strictly lower for C=CC(=O)O [2-PROPENOATE] ?
yes

Lab log: compare recorded LC retention time with 6 min; is it strictly lower for O=S(=O)(O)Oc1c[nH]c2ccccc12 [INDOXYL SULFATE] ?
yes

Lab log: compare recorded LC retention time with 6 min; is it strictly lower for `CC(C)CCCCCCCCCCCCCCCC(=O)O` ?
no

Lab log: compare recorded LC retention time with 6 min; is it strictly lower for CC(C)C(=O)C(=O)O [α-Keto Isovaleric Acid Sodium Salt] ?
yes

***
Lab log: compare recorded LC retention time with 6 min; is it strictly lower for Cc1cn(C2CC(O)C(CO)O2)c(=O)[nH]c1=O (configuration not stated) ?
yes
